Origin of values: patent US4966962A

- Test system: colon 38 adenocarcinoma
- testSummary: Activity against advanced colon carcinoma C38 tumor
- Type: in vivo, CDF1 mice
- reportedConditions: dose 0.30 mg/kg iv days 1, 5, 9
*1 amine or outer side, *2 acyl side, *3 side chain or, on linkers, in order; H or OH if unused. Where a SMILES comes first, the peptide text is derived from it. Bridges are numbered along the chain shown (N, C = ends). Roman numbers before positions name the chains, in order. [ ]: non-standard residue; d: D form. Actinocin(9to1) = Cc1c2oc3c(C)ccc(C(=O)[*:1])c3nc-2c(C(=O)[*:2])c(N)c1=O; NMeV = CN[C@H](C(=O)O)C(C)C; Sar = CNCC(=O)O
Please provide measured % T/C (median survival time) for the entries that follow.
Please respond with the number in % and leave the unit unwritten.

### Prompt Fill in % T/C (median survival time) for record `Cc1c2oc3c(C)c(O)c(N)c(C(=O)N[C@@H]4C(=O)N[C@H](C(C)C)C(=O)N5CCC[C@H]5C(=O)N(C)CC(=O)N(C)[C@@H](C(C)C)C(=O)O[C@@H]4C)c3nc-2c(C(=O)N[C@@H]2C(=O)N[C@H](C(C)C)C(=O)N3CCC[C@H]3C(=O)N(C)CC(=O)N(C)[C@@H](C(C)C)C(=O)O[C@@H]2C)c(N)c1=O`
### Response 278

### Prompt Read the entry `Cc1c2oc3c(C)c4oc(-c5ccccc5)nc4c(C(=O)N[C@@H]4C(=O)N[C@H](C(C)C)C(=O)N5CCC[C@H]5C(=O)N(C)CC(=O)N(C)[C@@H](C(C)C)C(=O)O[C@@H]4C)c3nc-2c(C(=O)N[C@@H]2C(=O)N[C@H](C(C)C)C(=O)N3CCC[C@H]3C(=O)N(C)CC(=O)N(C)[C@@H](C(C)C)C(=O)O[C@@H]2C)c(N)c1=O` and write its reported % T/C (median survival time).
### Response 137

### Prompt Give % T/C (median survival time) for Cc1c2oc3c(C)ccc(C(=O)N[C@@H]4C(=O)N[C@H](C(C)C)C(=O)N5CCC[C@H]5C(=O)N(C)CC(=O)N(C)[C@@H](C(C)C)C(=O)O[C@@H]4C)c3nc-2c(C(=O)N[C@@H]2C(=O)N[C@H](C(C)C)C(=O)N3CCC[C@H]3C(=O)N(C)CC(=O)N(C)[C@@H](C(C)C)C(=O)O[C@@H]2C)c(N)c1=O [AMD (1), Actinomycin D] (I: T[dV]P[Sar][NMeV] / II: T[dV]P[Sar][NMeV]; ester I:1-I:C, II:1-II:C; linker I:N-II:N via Actinocin(9to1))
### Response 134

### Prompt Please list % T/C (median survival time) recorded for the compound `Cc1c2oc3c(C)c4oc(CC(=O)NCCCCN)nc4c(C(=O)N[C@@H]4C(=O)N[C@H](C(C)C)C(=O)N5CCC[C@H]5C(=O)N(C)CC(=O)N(C)[C@@H](C(C)C)C(=O)O[C@@H]4C)c3nc-2c(C(=O)N[C@@H]2C(=O)N[C@H](C(C)C)C(=O)N3CCC[C@H]3C(=O)N(C)CC(=O)N(C)[C@@H](C(C)C)C(=O)O[C@@H]2C)c(N)c1=O`
### Response 170
